- MEASURED_ON: AMP-activated protein kinase, AMPK (Homo sapiens) (UniProt P54646+O43741+P54619+Q9UGJ0+Q9Y478+Q13131+Q9UGI9)
- ASSAY: AMP-dependent Kinase enzyme assay. An in vitro enzyme assay that detects ADP turnover that is directly proportional to AMPK activity. This uses naive AMPK that is activated during the assay with MK-8722
- Assay type: functional
- Design: scale not given: direction of the effect not stated beside the values
- CONDITION_LABEL: 30 µM
Listed here: items and their measured Percent Effect.
REPORTED_PROPERTY: Percent Effect (%)

compound=Cc1cccnc1NCCNC(=O)[C@H]1CNC[C@@H](C(=O)N2CCCC2)C1 result_value=-3.43
compound=CC(C)N1Cc2c(C(=O)N3CCOCC3)nn(C)c2C1 result_value=4.04
compound=CNC(=O)[C@@H]1C[C@H]2CN(C(=O)c3ccco3)C[C@H]2N1C result_value=-2.42
compound="Cc1cnn(CC2CCCN2Cc2nnsc2Cl)c1 (stereo not drawn)" result_value=-0.946
compound="c1cnnc(NCC2CN(Cc3cccc4c3OCCO4)CCO2)c1 (stereo not drawn)" result_value=2.26
compound=Cc1ncsc1C(=O)NCCn1nc2ccccn2c1=O result_value=0.246
compound=CNC(=O)CC1CCN(Cc2nc(-c3cccc(Cl)c3)oc2C)CC1 result_value=-6.08
compound="COc1ccc(CN2CCc3ncnc(C4CCOC4)c3CC2)cc1 (stereo not drawn)" result_value=-1.49
